System: HOP-92 NSCLC
procedure_details: NCI tumour cell line growth inhibition, 48 h
Please use rule met whenever TGI is not below 50 µM, and rule not met whenever it is.

[
  {
    "compound": "C[n+]1cccc(/C=C/c2ccc3cccc(O)c3n2)c1",
    "classification": "rule met"
  }
]

**Query** Evaluate COc1ccc(C2CCC(Cl)(OC)CC2C=O)cc1 (stereo not given) : TGI at minimum 50 µM?
**Result** rule met

**Query** Evaluate "CN(C)c1ccc(/C=C2\N=C(N/N=C/c3ccccc3)NC2=O)cc1" : TGI at minimum 50 µM?
**Result** rule met

**Query** Evaluate "C=C1C(=O)O[C@H]2[C@H]1[C@H](OC(=O)/C(C)=C\C)C[C@]1(CO1)[C@@H]1[C@H](OC(C)=O)C=C(C)[C@]21O" : TGI at minimum 50 µM?
**Result** rule not met
